molecular target: BRC1 (His-BRC1) (Solanum lycopersicum (tomato), UniProt A0A3Q7HTP5 1-406); assay: EMSA; Light Shift Chemiluminescent EMSA kit (Thermo 20148) per manufacturer; buffer, salt, pH and temperature not stated; settings: protein: recombinant; tags: His (pET-32a); chain copies: 2; label: 3' biotin (probe); blunt
Sequence (A0A3Q7HTP5 entry or part of it): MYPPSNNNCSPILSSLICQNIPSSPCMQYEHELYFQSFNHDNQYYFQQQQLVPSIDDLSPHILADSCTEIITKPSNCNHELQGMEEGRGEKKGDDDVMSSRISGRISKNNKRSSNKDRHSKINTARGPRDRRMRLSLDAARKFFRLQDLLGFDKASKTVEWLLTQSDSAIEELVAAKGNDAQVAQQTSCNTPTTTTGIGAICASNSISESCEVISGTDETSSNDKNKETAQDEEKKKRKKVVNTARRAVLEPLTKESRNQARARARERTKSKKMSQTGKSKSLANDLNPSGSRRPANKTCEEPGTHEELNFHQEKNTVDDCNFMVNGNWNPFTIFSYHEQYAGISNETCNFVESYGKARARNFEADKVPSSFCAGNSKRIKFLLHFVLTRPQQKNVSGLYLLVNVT
observed-property: binding result

GA2ox4-B WT (dsDNA) DNA 1: TCCCAAATTTTCGAATTATTAGGGGACCATTTTTTTTAAAAAAA DNA 2: TTTTTTTAAAAAAAATGGTCCCCTAATAATTCGAAAATTTGGGA; binds
CKX7-A WT (dsDNA) DNA 1: CCCCGACATCTAAAGAGTGGGCCCAAATATCAGATAAATCAAGAACA DNA 2: TGTTCTTGATTTATCTGATATTTGGGCCCACTCTTTAGATGTCGGGG; binds
